Below, each entry is listed alongside its reported yeast fitness.
B1: tRNA (parent)
chain: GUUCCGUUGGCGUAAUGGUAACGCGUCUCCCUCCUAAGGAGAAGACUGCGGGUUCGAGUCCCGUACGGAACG

Variants of: B1
Measurement protocol: yeast fitness relative to wild type (ratio to wild type); higher = fitter; tRNA-Arg(CCU), competitive growth, 37 C, YPD
Variants at the floor of the assay were thinned out.
Respond with the number and no other words.

>>> print(df.to_string())
   variant_designation  recorded_measurement
0  G38A C46A G50A U53C                 0.596
1        C5U C62U A65C                 0.739
2       A20G C24U C46U                 0.733
3            C33U G52A                  0.58
4       G23A C33G C62A                 0.742

Please examine the following record next.
Notebook: C27G G39A C46U , yeast fitness read as 0.74
